- MEASURED ON: ShHTL7 (Striga hermonthica, UniProt A0A0M3PNA2)
- Sequence (A0A0M3PNA2 1-271): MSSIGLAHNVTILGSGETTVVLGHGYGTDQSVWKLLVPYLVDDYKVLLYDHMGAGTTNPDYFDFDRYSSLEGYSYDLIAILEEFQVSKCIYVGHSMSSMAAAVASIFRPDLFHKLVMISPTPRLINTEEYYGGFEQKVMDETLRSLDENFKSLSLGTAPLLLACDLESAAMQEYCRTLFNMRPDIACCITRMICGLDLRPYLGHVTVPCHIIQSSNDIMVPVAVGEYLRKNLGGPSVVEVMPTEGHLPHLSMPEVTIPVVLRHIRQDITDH
MEASUREMENT TYPE: IC50

compound="CC1=CC(O/C=C2/C(=O)OC3c4ccccc4CC23)OC1=O (racemic) [rac-GR24]" measurement_type=IC50 measured_value="170 nM"

---

- MEASURED ON: ShHTL7 T190F/C194F (Striga hermonthica, UniProt A0A0M3PNA2, C194F/T190F)
- Sequence (A0A0M3PNA2 whole entry T190F/C194F): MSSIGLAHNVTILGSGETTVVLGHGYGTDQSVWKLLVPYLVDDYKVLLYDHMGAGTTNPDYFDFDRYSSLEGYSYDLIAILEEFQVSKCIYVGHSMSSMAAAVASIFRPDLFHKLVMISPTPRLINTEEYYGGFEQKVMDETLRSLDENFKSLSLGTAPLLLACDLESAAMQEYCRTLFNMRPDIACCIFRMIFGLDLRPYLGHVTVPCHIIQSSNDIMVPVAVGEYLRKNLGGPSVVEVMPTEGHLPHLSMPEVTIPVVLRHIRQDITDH
- MEASUREMENT DESCRIPTION: YLG competition assay, ShHTL7 double mutation
- Experimental: The YLG assays were conducted as previously described[28] with minor modifications. […] The fluorescence intensity was measured using a SpectraMax® iD5 Multi-Mode Microplate Reader (Molecular Devices). Measurements were performed at room temperature under a 480 nm excitation wavelength, a 530 nm emission wavelength, a manual PMT of 500, and a read height of 1.00 mm. The fluorescence can be detected if YLG is hydrolyzed. […] The inhibition constant Ki was calculated according to the Cheng-Prusoff equation7. […]
MEASUREMENT TYPE: Ki (nM)

compound="CC1=CC(O/C=C2/C(=O)OC3c4ccccc4CC23)OC1=O (racemic)" measurement_type=Ki measured_value=150

---

- MEASURED ON: ShHTL7 L124F/T190F/C194F (Striga hermonthica, UniProt A0A0M3PNA2, C194F/L124F/T190F)
- Sequence (A0A0M3PNA2 whole entry L124F/T190F/C194F): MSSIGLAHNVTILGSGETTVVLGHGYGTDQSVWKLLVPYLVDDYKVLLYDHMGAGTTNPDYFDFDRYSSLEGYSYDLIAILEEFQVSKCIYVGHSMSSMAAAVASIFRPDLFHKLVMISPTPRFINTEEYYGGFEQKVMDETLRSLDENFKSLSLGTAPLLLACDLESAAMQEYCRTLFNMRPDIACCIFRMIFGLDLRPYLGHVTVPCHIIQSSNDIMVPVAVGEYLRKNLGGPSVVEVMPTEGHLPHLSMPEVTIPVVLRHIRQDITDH
- MEASUREMENT DESCRIPTION: YLG competition assay, ShHTL7 triple mutation
MEASUREMENT TYPE: Ki (µM)

molecule="CC1=CC(O/C=C2/C(=O)OC3c4ccccc4CC23)OC1=O (racemic)" measured_on="ShHTL7 L124F/T190F/C194F (Striga hermonthica, UniProt A0A0M3PNA2, C194F/L124F/T190F)" measurement_type=Ki measured_value=11.8

---

- MEASURED ON: AtHTL (Arabidopsis thaliana, UniProt Q9SZU7)
- Sequence (Q9SZU7 whole entry): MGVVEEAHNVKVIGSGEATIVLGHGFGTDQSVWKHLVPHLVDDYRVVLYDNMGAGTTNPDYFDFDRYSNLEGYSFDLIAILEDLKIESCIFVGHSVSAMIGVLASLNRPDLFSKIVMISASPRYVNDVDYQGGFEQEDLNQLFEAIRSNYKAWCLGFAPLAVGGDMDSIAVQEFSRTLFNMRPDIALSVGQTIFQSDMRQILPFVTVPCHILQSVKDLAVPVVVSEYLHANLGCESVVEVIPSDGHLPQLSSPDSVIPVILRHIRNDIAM
MEASUREMENT TYPE: Kd (µM)

molecule="Cc1c2ccocc-2oc1=O [KAR1, 3-methyl-2H-furo [2,3-c] pyran-2-one]" measurement_type=Kd output_unit=µM measured_value=129

---

- MEASURED ON: ShHTL7 T190F/C194F (Striga hermonthica, UniProt A0A0M3PNA2, C194F/T190F)
- MEASUREMENT DESCRIPTION: YLG competition assay, ShHTL7 double mutation
MEASUREMENT TYPE: IC50

compound="CC1=CC(O/C=C2/C(=O)OC3c4ccccc4CC23)OC1=O (racemic)" measured_on="ShHTL7 T190F/C194F (Striga hermonthica, UniProt A0A0M3PNA2, C194F/T190F)" measured_value="210 nM"

---

- MEASURED ON: ShHTL7 L124F/T190F/C194F (Striga hermonthica, UniProt A0A0M3PNA2, C194F/L124F/T190F)
- MEASUREMENT DESCRIPTION: YLG competition assay, ShHTL7 triple mutation
pIC50: −log10 of the molar value.
MEASUREMENT TYPE: pIC50

compound="CC1=CC(O/C=C2/C(=O)OC3c4ccccc4CC23)OC1=O (racemic)" measurement_type=pIC50 measured_value=4.86
